Exercise: state measured log10 of Activity for each of the compounds provided.
- Assay Protocol: Antioxidant activity assessed as trolox equivalent of AAPH-induced radical scavenging activity at 5 uM preincubated for 15 mins followed by AAPH addition measured every min for 90 mins by ORAC-FL assay
- Type: functional
Units before log transform: µMequiv/µM; reported quantity: Activity; transform: log10.

// query Query: log10 of Activity; subject: CCN(CCCCC1OC(=O)c2cc(OC)c(OC)cc21)Cc1ccccc1 (configuration not stated)
// result -0.64

// query Report log10 of Activity for CCN(CCC/C=C1/OC(=O)c2cc(OC)c(OC)cc21)Cc1ccc(N(C)C)cc1 please.
// result 0.46

// query Param item = COc1ccccc1CN(C)CCC/C=C1\OC(=O)c2cc(OC)c(OC)cc21 ; retrieve measured log10 of Activity.
// result -0.36

// query What measured log10 of Activity goes with CCN(CCC/C=C1/OC(=O)c2cc(OC)c(OC)cc21)Cc1ccccc1N(C)C ?
// result 0.03

// query I am curious: what log10 of Activity value has been reported for COc1cc2c(cc1OC)/C(=C/CCCN1CCCCC1)OC2=O ?
// result -0.55

// query log10 of Activity lookup needed for COc1cc2c(cc1OC)C(CCCCN(C)Cc1ccccc1)OC2=O (configuration not stated) , thanks.
// result -0.54

// query Which log10 of Activity is listed for CCN(CCCCC/C=C1/OC(=O)c2cc(OC)c(OC)cc21)Cc1ccccc1N(C)C ?
// result 0.08

// query Request the reported log10 of Activity associated with COc1ccccc1CN(C)CCC/C=C1/OC(=O)c2cc(OC)c(OC)cc21
// result -0.42

// query Please report the recorded log10 of Activity for CCN(CC)CCC/C=C1/OC(=O)c2cc(OC)c(OC)cc21 .
// result -0.66

// query Data request, read-out log10 of Activity, for CCN(CCC/C=C1\OC(=O)c2cc(OC)c(OC)cc21)Cc1ccccc1OC
// result -0.03

// query What value of log10 of Activity has been recorded for this entry: CCN(CCCCC1OC(=O)c2cc(OC)c(OC)cc21)Cc1ccccc1N(C)C (configuration not stated)
// result -0.37

// query Item under review: CCN(CC)CCCCC1OC(=O)c2cc(OC)c(OC)cc21 (configuration not stated) . Reported log10 of Activity?
// result -0.51

// query Entry COc1cc2c(cc1OC)/C(=C\CCCN(C)Cc1ccccc1)OC2=O : reported log10 of Activity = ?
// result -0.31

// query For the compound CCN(CCCCCCC1OC(=O)c2cc(OC)c(OC)cc21)Cc1ccccc1N(C)C (configuration not stated) , what log10 of Activity is on record?
// result -0.22

// query Form field: reported log10 of Activity of COc1cc2c(cc1OC)C(CCCCCCN(C)Cc1ccccc1)OC2=O (configuration not stated)
// result -0.60

// query Form field: reported log10 of Activity of CCN(CCC/C=C1\OC(=O)c2cc(OC)c(OC)cc21)Cc1ccccc1
// result -0.44

// query Entry under review: CCN(CCCCC1OC(=O)c2cc(OC)c(OC)cc21)Cc1ccc(N(C)C)cc1 (configuration not stated) . Reported log10 of Activity?
// result 0.41

// query Reported log10 of Activity, compound COc1ccccc1CN(C)CCCCC1OC(=O)c2cc(OC)c(OC)cc21 (configuration not stated) : ____
// result -0.57

// query Entry COc1cc2c(cc1OC)/C(=C/CCCN(C)Cc1ccccc1)OC2=O has what log10 of Activity?
// result -0.49

// query Param item = COc1cc2c(cc1OC)C(CCCCN1CCCCC1)OC2=O (configuration not stated) ; retrieve measured log10 of Activity.
// result -0.66

// query Look at this compound and give its reported log10 of Activity. CCCCC1OC(=O)c2ccccc21 (racemic) [RAC-3-N-BUTYLPHTHALIDE]
// result -0.68

// query Requested read-out: log10 of Activity. Entry: CCN(CCC/C=C1\OC(=O)c2cc(OC)c(OC)cc21)Cc1ccccc1N(C)C
// result -0.11
